Target: Voltage-dependent N-type calcium channel subunit alpha-1B (Homo sapiens) (UniProt Q00975)
Sequence (Q00975 whole entry, looked up): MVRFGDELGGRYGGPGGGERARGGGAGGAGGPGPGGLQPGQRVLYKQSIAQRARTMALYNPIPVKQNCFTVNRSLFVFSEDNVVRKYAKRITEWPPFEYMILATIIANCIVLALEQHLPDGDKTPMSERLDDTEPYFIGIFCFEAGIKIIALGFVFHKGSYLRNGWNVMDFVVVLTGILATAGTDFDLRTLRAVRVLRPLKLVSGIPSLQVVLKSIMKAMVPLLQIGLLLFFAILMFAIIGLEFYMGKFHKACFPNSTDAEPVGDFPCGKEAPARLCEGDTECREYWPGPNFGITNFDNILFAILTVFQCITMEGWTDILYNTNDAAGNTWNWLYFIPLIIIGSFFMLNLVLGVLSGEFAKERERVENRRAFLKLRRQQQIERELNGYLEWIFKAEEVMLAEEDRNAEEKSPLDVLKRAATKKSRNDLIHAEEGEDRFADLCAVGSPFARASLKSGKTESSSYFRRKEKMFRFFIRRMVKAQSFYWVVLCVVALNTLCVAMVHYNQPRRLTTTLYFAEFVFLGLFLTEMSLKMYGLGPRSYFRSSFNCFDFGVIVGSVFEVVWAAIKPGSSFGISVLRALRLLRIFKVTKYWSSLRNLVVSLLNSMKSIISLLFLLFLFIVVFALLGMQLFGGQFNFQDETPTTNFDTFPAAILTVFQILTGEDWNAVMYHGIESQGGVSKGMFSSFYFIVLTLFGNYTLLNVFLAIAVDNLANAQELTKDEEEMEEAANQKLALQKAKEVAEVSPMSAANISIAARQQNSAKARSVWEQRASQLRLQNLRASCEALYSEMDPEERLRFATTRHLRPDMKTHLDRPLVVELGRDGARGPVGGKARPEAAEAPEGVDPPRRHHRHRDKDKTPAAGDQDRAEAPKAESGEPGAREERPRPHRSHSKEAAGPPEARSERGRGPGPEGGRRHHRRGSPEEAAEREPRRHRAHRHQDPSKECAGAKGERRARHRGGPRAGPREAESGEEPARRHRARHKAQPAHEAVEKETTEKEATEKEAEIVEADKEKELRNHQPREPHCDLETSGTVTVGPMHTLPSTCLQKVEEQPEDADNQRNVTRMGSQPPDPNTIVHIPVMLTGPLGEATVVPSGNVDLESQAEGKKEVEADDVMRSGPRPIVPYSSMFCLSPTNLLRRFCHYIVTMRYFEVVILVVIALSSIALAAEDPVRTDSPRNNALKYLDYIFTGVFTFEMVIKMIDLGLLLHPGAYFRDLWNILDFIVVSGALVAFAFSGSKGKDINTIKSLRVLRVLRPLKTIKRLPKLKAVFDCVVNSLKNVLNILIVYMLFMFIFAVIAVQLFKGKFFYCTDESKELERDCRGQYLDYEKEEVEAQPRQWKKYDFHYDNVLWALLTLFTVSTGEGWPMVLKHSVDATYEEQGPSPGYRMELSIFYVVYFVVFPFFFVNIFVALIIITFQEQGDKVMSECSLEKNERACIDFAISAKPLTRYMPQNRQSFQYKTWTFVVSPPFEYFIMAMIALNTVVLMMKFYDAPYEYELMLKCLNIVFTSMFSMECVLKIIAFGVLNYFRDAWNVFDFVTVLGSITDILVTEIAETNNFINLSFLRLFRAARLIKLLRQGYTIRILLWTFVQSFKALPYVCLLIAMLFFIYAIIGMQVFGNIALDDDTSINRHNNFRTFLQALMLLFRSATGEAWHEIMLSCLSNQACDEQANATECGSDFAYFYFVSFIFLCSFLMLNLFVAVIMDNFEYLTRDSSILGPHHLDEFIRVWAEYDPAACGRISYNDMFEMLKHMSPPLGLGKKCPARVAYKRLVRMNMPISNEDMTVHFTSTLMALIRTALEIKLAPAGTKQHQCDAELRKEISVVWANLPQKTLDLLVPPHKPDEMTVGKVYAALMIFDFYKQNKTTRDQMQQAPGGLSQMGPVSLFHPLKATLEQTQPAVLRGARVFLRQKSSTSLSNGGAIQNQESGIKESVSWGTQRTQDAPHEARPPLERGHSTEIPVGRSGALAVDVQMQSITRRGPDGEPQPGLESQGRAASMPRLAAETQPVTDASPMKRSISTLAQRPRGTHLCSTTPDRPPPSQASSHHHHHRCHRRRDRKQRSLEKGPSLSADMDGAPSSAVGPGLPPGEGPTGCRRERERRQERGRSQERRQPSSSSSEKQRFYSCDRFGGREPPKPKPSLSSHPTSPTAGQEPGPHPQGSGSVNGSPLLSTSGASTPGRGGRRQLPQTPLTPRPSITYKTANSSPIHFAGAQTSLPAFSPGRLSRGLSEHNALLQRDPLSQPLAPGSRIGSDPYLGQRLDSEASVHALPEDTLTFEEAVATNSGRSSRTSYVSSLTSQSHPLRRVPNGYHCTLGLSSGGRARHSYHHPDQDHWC
Experiment: disruptors of CaV2.2 binding to Mint1 – biochemical, HTRF (AID 2073)
Settings: HTRF protein-protein interaction, Mint1-CaV2.2; at 20 µM; stronger effect = higher value
The whole screen tested about 290,000 compounds, of which about 570 (0.2%) were called active. Inconclusive results (about 1%) are left out. This is one part of a sample in which actives are shown more often than they occur.
Decision: inhibition >= 30% yields 1.0, all other cases yield 0.0.

// below: answered molecules
molecule	measurement_target	assigned_class
CCOC(=O)c1ccc(N2C(=O)c3n[nH]c(-c4ccco4)c3C2c2ccc([N+](=O)[O-])cc2)cc1 (stereo not drawn)	Voltage-dependent N-type calcium channel subunit alpha-1B (Homo sapiens) (UniProt Q00975)	1.0
Cc1cc(C)c(C#N)c(N2CCN(S(=O)(=O)Cc3ccccc3)CC2)n1	Voltage-dependent N-type calcium channel subunit alpha-1B (Homo sapiens) (UniProt Q00975)	0.0

## Task Please tell me: is the molecule "Clc1cccc(Cl)c1CNc1ccc(N2CCCC2)cc1" at or over 30% in terms of inhibition?
## Result 1.0

## Task Entry to check: "CN(CCN1CCc2ccccc2C1)Cc1nc(-c2ccc3c(c2)OCO3)no1"
## Result 0.0

## Task Entry to check: "CCOC(=O)/C(C#N)=C1/C=Nc2ccccc2N1"
## Result 0.0

## Task Entry to check: "COCCn1c(=NC(=O)c2cc(Cl)sc2Cl)sc2cc(S(N)(=O)=O)ccc21"
## Result 1.0

## Task Entry to check: "c1ccc2c(c1)CCN(CCCNc1nc3ccccc3n3cnnc13)C2"
## Result 1.0

## Task Entry to check: "CCCCOC(=O)Nc1nnc(CC)s1"
## Result 0.0

* * *

Listing of entries alongside the reported inhibition.
Target: Voltage-dependent N-type calcium channel subunit alpha-1B (Homo sapiens)
Assay: disruptors of CaV2.2 binding to Mint1 – biochemical, HTRF (AID 2073)
Conditions: HTRF protein-protein interaction, Mint1-CaV2.2; at 20 µM; stronger effect = higher value
Among all 290,000 compounds or so, about 570 (0.2%) were called active. Another 1% or so got no clear call; they are omitted. The sample holds actives, similar compounds and a random draw of the others, so the mix is not that of the screen.

compound	endpoint_result
Cc1cc(C)c(NC(=S)N(Cc2cccnc2)Cc2ccco2)c(C)c1	0.6% (inactive)
COc1ccc(C2N(C(=O)c3ccccc3)CCN2C(=O)c2ccc(C)cc2)cc1 (centres undefined)	-6.5% (inactive)
Cc1ccc(C(=O)NCCCN2CCOCC2)cc1Cl	4.3% (inactive)

Alright, here's another compound for you.
## Task Quick check: inhibition of "COc1ccc(Nc2nc(-c3c(C)nc4ncccn34)cs2)cc1" ?
## Result 55.6% (active)

* * *

Listing of entries alongside the reported inhibition.
Target: Voltage-dependent N-type calcium channel subunit alpha-1B (Homo sapiens) (UniProt Q00975)
Assay: disruptors of CaV2.2 binding to Mint1 – biochemical, HTRF (AID 2073)
Conditions: HTRF protein-protein interaction, Mint1-CaV2.2; at 20 µM; stronger effect = higher value
About 570 (0.2%) of roughly 290,000 compounds were called active. Roughly 1% stayed inconclusive and do not appear here. For the sample, actives were picked, then their nearest neighbours and some compounds at random.
Answer format: numeric, % implied, no suffix.

Below are worked cases with known answers.
compound	unit_abbreviation	inhibition
COc1cccc(NS(=O)(=O)c2ccc3c(c2)C2C=CCC2C(c2ccc(C(=O)O)cc2)N3)c1 (stereo not drawn)	%	56.4
CC(=O)Nc1ccc(C(=O)Nc2ccc(S(=O)(=O)N3CCOCC3)cc2)cc1	%	-1.1

## Task Quick check: inhibition of Cc1ccc(N(C(=O)c2ccco2)C(C(=O)NC2CCCC2)c2cccnc2)cc1 (stereo not drawn) ?
## Result -0.3

## Task Entry to check: Cc1c(Cl)cccc1NS(=O)(=O)c1ccc2c(c1)C1C=CCC1C(c1ccc(C(=O)O)cc1)N2 (stereo not drawn)
## Result 61

## Task Entry to check: "Cc1ccc(Cl)cc1N1CCN(C(=O)Cn2ncn3cccc3c2=O)CC1"
## Result -1.5

## Task Entry to check: "COc1cccc2c1C(=O)C=C(C)C2=O"
## Result -19.2

## Task Entry to check: "CC1=CC(=O)c2c(O)ccc(O)c2C1=O"
## Result 85.1

## Task Entry to check: CCC(C)(C)n1nnnc1C(c1cc2ccc(OC)cc2[nH]c1=O)N1CCc2ccccc2C1 (stereo not drawn)
## Result 56.9

## Task Entry to check: CC1CN=C(Nc2cccc(S(=O)(=O)N(C)C)c2)S1 (stereo not drawn)
## Result -0.9

* * *

Target: Voltage-dependent N-type calcium channel subunit alpha-1B (Homo sapiens)
Assay: disruptors of CaV2.2 binding to Mint1 – biochemical, HTRF (AID 2073)
Conditions: HTRF protein-protein interaction, Mint1-CaV2.2; at 20 µM; stronger effect = higher value
Among all 290,000 compounds or so, about 570 (0.2%) were called active. Roughly 1% stayed inconclusive and do not appear here. Many of the other results were omitted from the sample, so actives are more common in it than they were.
measured_metric: inhibition (%)
Answer format: numeric, % implied, no suffix.

Below are worked cases with known answers.
compound	measured_metric	unit_abbreviation	endpoint_result
CCOC(=O)c1cc2c(=O)n3ccccc3nc2n(Cc2ccco2)c1=NC(=O)c1ccc(OC)cc1OC	inhibition	%	66.1
O=C(O)c1cccnc1-c1ncccc1C(=O)O	inhibition	%	-7.6

## Task Recall the recorded inhibition for "Cc1ccc(NC(=S)Nc2cccc3cnccc23)cc1" with Voltage-dependent N-type calcium channel subunit alpha-1B (Homo sapiens) and state it.
## Result 21.8

## Task Entry to check: "CNC(=S)N1CCN=C1Nc1nc(C)cc(C)n1"
## Result 3.5

## Task Entry to check: "CC1=Nc2nc(N3CCCCC3)c(C#N)c3c4c(nc(c23)N1)N(c1ccc(C(C)C)cc1)C(=O)C4"
## Result 54.8

## Task Entry to check: CCCn1c(C(C)Nc2nc(-c3ccc(Cl)c([N+](=O)[O-])c3)cs2)nc2cc(Cl)c(N3CCCCC3)cc21 (configuration not stated)
## Result 21

## Task Entry to check: "O=C(NCc1ccccc1)c1sc(=S)n2c1[nH]c(=O)c1ccccc12"
## Result -8.6

## Task Entry to check: "CCOC(=O)c1c(NC(=O)CN2CCN(C(=O)c3ccco3)CC2)sc(C(N)=O)c1C"
## Result 0

## Task Entry to check: "CCCc1cc(=O)[nH]c(SCC(=O)N2CCC(C)CC2)n1"
## Result 12

* * *

Molecular target: Voltage-dependent N-type calcium channel subunit alpha-1B (Homo sapiens) (UniProt Q00975)
Experiment: disruptors of CaV2.2 binding to Mint1 – biochemical, HTRF (AID 2073)
Conditions: HTRF protein-protein interaction, Mint1-CaV2.2; measured here: average of repeat tests; at 20 µM; stronger effect = higher value
Out of some 290,000 compounds screened, about 570 (0.2%) were called active. Not shown: some 1% with an inconclusive outcome. The sample holds actives, similar compounds and a random draw of the others, so the mix is not that of the screen.
Decision: inhibition >= 30% yields Criterion met, all other cases yield Criterion not met.

compound	assigned_class
Cc1ccc(-c2cc(-c3ccco3)c3c(N)c(C(=O)NN)oc3n2)cc1	Criterion met
Cc1ccc2c(COC(=O)c3ccc(NC(=O)CC#N)cc3)cc(=O)oc2c1C	Criterion met
Cc1ccc(NC(=O)c2c3c(nc4ccccc24)CCC3)cc1S(=O)(=O)N(C)C	Criterion met
O=C(NCc1ccccc1)c1ccc2nc(-c3ccco3)c(-c3ccco3)nc2c1	Criterion not met
N#CC1=C2SCN(c3ccccc3)CN2C(=O)CC1c1cccs1 (centres undefined)	Criterion met
O=S(=O)(Nc1cc(Sc2ncn[nH]2)c(O)c2ccccc12)c1ccccc1	Criterion not met

## Task Please tell me: is the compound "O=C(Nc1nc(-c2ccco2)c(-c2ccco2)s1)C1CCC1" at or over 30% in terms of inhibition?
## Result Criterion not met

## Task Entry to check: "O=C(N/N=C\C=C\c1ccco1)c1cc(-c2ccc3ccccc3c2)n[nH]1"
## Result Criterion not met

## Task Entry to check: CCc1ccc(C2CC(=O)N3CN(c4ccccc4)CSC3=C2C#N)cc1 (centres undefined)
## Result Criterion met

## Task Entry to check: COc1cc(C2CC(=O)N3CN(c4ccccc4C)CSC3=C2C#N)cc(OC)c1OC (centres undefined)
## Result Criterion met

## Task Entry to check: "O=C(CSc1nnc(SCc2ccccc2)s1)N/N=C/C=C\c1ccco1"
## Result Criterion not met

## Task Entry to check: "CCOC(=O)C1=C(Cc2ccc(F)cc2)C(=O)c2ccccc2C1=O"
## Result Criterion not met

## Task Entry to check: N#CC1=C2SCN(Cc3ccco3)CN2C(=O)CC1c1ccccc1F (centres undefined)
## Result Criterion met

* * *

Target: Voltage-dependent N-type calcium channel subunit alpha-1B (Homo sapiens) (UniProt Q00975)
Test: disruptors of CaV2.2 binding to Mint1 – biochemical, HTRF (AID 2073)
Settings: HTRF protein-protein interaction, Mint1-CaV2.2; at 20 µM
In all, about 290,000 compounds went through this assay and about 570 (0.2%) were called active. Inconclusive results (about 1%) are left out. Cut-off read from the data, not from the text of the source: active = inhibition mostly above about 51% (no sharp cut-off); inconclusive = no clear call, values can overlap the other calls; inactive = mostly below about 53%. Only a selection was taken, and actives are over-represented in it overall.
Assign a class; possible classes are active, inactive

COc1ccc(NC(=O)CCC(=O)N(Cc2ccc(OC)c(OC)c2)c2nccs2)cc1 inactive
COc1cc(C(=O)N/N=C/c2sc(N3CCOCC3)nc2-c2ccccc2)cc(OC)c1OC inactive
O=c1[nH]c(SCc2n[nH]c(=S)n2-c2ccccc2)nc2sc3c(c12)CCC3 inactive
O=C(NNc1ccccc1)Nc1ccccc1F inactive
Cc1ccc(C(C)C)c(OCc2ccc(C(=O)N/N=C/c3ccc(O)c(O)c3)cc2)c1 inactive

## Task Answer briefly: the call reported for "Cc1ccccc1NC(=O)c1c(C)[nH]c(=S)c(C#N)c1-c1ccco1" in this assay.
## Result active

## Task Entry to check: "CC(C)(C)c1ccc(C(=O)N/N=C/c2ccc(OCCCF)cc2)cc1"
## Result inactive

## Task Entry to check: "CC(C)(C)NC(=O)CSC(=Nc1cccc(F)c1)NC#N"
## Result inactive

## Task Entry to check: "CC(C)(C)c1ccc(OCc2ccc(C(=O)N/N=C/c3ccc(O)c(O)c3)cc2)cc1"
## Result active

## Task Entry to check: "O=C(N/N=C/c1sc(N2CCOCC2)nc1-c1ccccc1)c1cccc(S(=O)(=O)N2CCOCC2)c1"
## Result inactive

Just for reference, PubChem BioAssay AID2073 is where these values come from.
